- experimental_system: KRAS G12D (Homo sapiens, UniProt P01116, G12D)
- Sequence (P01116 1-188 isoform P01116-2 G12D): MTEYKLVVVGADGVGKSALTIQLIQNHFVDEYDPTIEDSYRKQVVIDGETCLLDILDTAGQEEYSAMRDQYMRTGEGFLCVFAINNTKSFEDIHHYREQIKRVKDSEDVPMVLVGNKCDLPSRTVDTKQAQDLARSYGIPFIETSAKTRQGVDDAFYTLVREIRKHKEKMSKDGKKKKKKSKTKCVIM
- procedure_details: GDP-GTP exchange assay (bodipy-GDP/GppNHp, SOS1), KRAS G12D
- Assay type: biochemical
- condition_info: Table H, column G12D; for compounds isolated as several atropisomers/diastereoisomers the value for the most potent isomer is quoted; read-out: KRAS G12D exchange assay IC50
pIC50: −log10 of the molar value.
observation_type: pIC50

# annotated cases, reported pIC50 shown
Find the recorded pIC50 belonging to Cc1ccccc1O[C@H]1C[C@H](c2cc3c(C)nc4c(F)c(-c5cccc(Cl)c5Cl)c(CCC#N)cc4c3n2[C@H]2[C@H]3CN[C@@H]2C3)N(C(=O)C2CC2)C1 and report it.
≥ 7.00

Another molecule to look at: Cc1nc2c(F)c(-c3cccc(Cl)c3Cl)c(CCC#N)cc2c2c1cc([C@H]1C[C@H](Oc3ccnc(OC(F)F)c3)CN1C(=O)C1CC1)n2[C@H]1[C@H]2CN[C@@H]1C2
≥ 7.00

Consider the additional molecule presented here.
Find the recorded pIC50 belonging to Cc1nc2c(F)c(-c3cccc(Cl)c3Cl)c(CCC#N)cc2c2c1cc([C@H]1C[C@H](OCc3cccc(C(F)(F)F)n3)CN1C(=O)C1CC1)n2[C@H]1[C@H]2CN[C@@H]1C2 and report it.
≥ 7.00

----------
IC50 by entry:
- experimental_system: KRAS G12D (Homo sapiens, UniProt P01116, G12D)
- procedure_details: GDP-GTP exchange assay (bodipy-GDP/GppNHp, SOS1), KRAS G12D
- Format: biochemical
- condition_info: Table H, column G12D; for compounds isolated as several atropisomers/diastereoisomers the value for the most potent isomer is quoted; read-out: KRAS G12D exchange assay IC50

# annotated cases, reported IC50 shown
Find the recorded IC50 belonging to Cc1nc2c(F)c(-c3cccc(Cl)c3Cl)c(CCC#N)cc2c2c1cc([C@H]1C[C@H](OC(F)(F)c3ccccc3)CN1C(=O)C1CC1)n2[C@H]1[C@H]2CN[C@@H]1C2 [Example 79] and report it.
≤ 100 nM

Another compound to look at: Cc1nc2c(F)c(-c3cccc(Cl)c3Cl)c(CCC#N)cc2c2c1cc([C@H]1C[C@H](OCc3ccon3)CN1C(=O)C1CC1)n2[C@H]1[C@H]2CN[C@@H]1C2 [Example 12]
≤ 100 nM

Consider the additional compound presented here.
Find the recorded IC50 belonging to CC(O)c1nc2c(F)c(-c3cccc(Cl)c3Cl)c(CCC#N)cc2c2c1cc([C@H]1C[C@H](OCc3ccc(F)cc3C#N)CN1C(=O)C1(C)CC1)n2[C@H]1[C@H]2CN[C@@H]1C2 (stereo partly drawn) [Example 35] and report it.
≤ 100 nM

----------
- experimental_system: KRAS G12D (Homo sapiens, UniProt P01116, G12D)
- procedure_details: GDP-GTP exchange assay (bodipy-GDP/GppNHp, SOS1), KRAS G12D
- Format: biochemical
- condition_info: bodipy-loaded KRAS G12D 2.5 nM, 4 h pre-incubation; value for the most potent isomer quoted for certain compounds; read-out: G12D (KRAS G12D exchange assay IC50)
IC50 by entry:

# annotated cases, reported IC50 shown
Find the recorded IC50 belonging to Cc1nc2c(F)c(-c3cccc(Cl)c3Cl)c(CCC#N)cc2c2c1cc([C@H]1C[C@H](OCc3ccncc3)CN1C(=O)C1CC1)n2[C@H]1[C@H]2CN[C@@H]1C2 and report it.
≤ 100 nM

Another molecule to look at: Cc1nc2c(F)c(-c3cccc(Cl)c3Cl)c(CCC#N)cc2c2c1cc([C@H]1C[C@H](OCc3c(Cl)cccc3Cl)CN1C(=O)C1CC1)n2[C@H]1[C@H]2CN[C@@H]1C2
≤ 100 nM

Another molecule to look at: Cc1nc2c(F)c(-c3cccc(Cl)c3Cl)c(CCC#N)cc2c2c1cc([C@H]1C[C@H](n3cc(C#N)nn3)CN1C(=O)C1CC1)n2[C@H]1[C@H]2CN[C@@H]1C2
≤ 100 nM

Another molecule to look at: Cc1nc2c(F)c(-c3cccc(Cl)c3Cl)c(CCC#N)cc2c2c1cc([C@H]1C[C@H](n3cc(C(F)(F)F)nn3)CN1C(=O)C1CC1)n2[C@H]1[C@H]2CN[C@@H]1C2
≤ 100 nM

Another molecule to look at: Cc1nc2c(F)c(-c3cccc(Cl)c3Cl)c(CCC#N)cc2c2c1cc([C@H]1C[C@H](OCc3cnn(C)n3)CN1C(=O)C1CC1)n2[C@H]1[C@H]2CN[C@@H]1C2
≤ 100 nM

Another molecule to look at: Cc1nc2c(F)c(-c3cccc(Cl)c3Cl)c(CCC#N)cc2c2c1cc([C@H]1C[C@H](Oc3cccnn3)CN1C(=O)C1CC1)n2[C@H]1[C@H]2CN[C@@H]1C2
≤ 100 nM

Another molecule to look at: Cc1cc(C(C)O[C@H]2C[C@H](c3cc4c(C(C)O)nc5c(F)c(-c6cccc(Cl)c6Cl)c(CCC#N)cc5c4n3[C@H]3[C@H]4CN[C@@H]3C4)N(C(=O)C3CC3)C2)ns1 (stereo partly shown)
≤ 100 nM

Another molecule to look at: Cc1nc2c(F)c(-c3cccc(Cl)c3Cl)c(CCC#N)cc2c2c1cc([C@H]1C[C@H](OCc3ccc(Cl)cc3C#N)CN1C(=O)C1CC1)n2[C@H]1[C@H]2CN[C@@H]1C2
≤ 100 nM

Another molecule to look at: Cc1nc2c(F)c(-c3cccc(Cl)c3Cl)c(CCC#N)cc2c2c1cc([C@H]1C[C@H](Oc3ccn(C)n3)CN1C(=O)C1CC1)n2[C@H]1[C@H]2CN[C@@H]1C2
≤ 100 nM

***
Find the recorded IC50 belonging to Cc1nc2c(F)c(-c3cccc(Cl)c3Cl)c(CCC#N)cc2c2c1cc([C@H]1C[C@H](Oc3cc(Cl)cc(C#N)c3)CN1C(=O)C1CC1)n2[C@H]1[C@H]2CN[C@@H]1C2 and report it.
≤ 100 nM
